Cited source for all entries: patent US9006450B2

Test System: human ACC2 (Homo sapiens, UniProt O00763)
Construct: made in house; host or cells: insect cells (baculoviral expression system)
Sequence (O00763 129-2458 limits assumed): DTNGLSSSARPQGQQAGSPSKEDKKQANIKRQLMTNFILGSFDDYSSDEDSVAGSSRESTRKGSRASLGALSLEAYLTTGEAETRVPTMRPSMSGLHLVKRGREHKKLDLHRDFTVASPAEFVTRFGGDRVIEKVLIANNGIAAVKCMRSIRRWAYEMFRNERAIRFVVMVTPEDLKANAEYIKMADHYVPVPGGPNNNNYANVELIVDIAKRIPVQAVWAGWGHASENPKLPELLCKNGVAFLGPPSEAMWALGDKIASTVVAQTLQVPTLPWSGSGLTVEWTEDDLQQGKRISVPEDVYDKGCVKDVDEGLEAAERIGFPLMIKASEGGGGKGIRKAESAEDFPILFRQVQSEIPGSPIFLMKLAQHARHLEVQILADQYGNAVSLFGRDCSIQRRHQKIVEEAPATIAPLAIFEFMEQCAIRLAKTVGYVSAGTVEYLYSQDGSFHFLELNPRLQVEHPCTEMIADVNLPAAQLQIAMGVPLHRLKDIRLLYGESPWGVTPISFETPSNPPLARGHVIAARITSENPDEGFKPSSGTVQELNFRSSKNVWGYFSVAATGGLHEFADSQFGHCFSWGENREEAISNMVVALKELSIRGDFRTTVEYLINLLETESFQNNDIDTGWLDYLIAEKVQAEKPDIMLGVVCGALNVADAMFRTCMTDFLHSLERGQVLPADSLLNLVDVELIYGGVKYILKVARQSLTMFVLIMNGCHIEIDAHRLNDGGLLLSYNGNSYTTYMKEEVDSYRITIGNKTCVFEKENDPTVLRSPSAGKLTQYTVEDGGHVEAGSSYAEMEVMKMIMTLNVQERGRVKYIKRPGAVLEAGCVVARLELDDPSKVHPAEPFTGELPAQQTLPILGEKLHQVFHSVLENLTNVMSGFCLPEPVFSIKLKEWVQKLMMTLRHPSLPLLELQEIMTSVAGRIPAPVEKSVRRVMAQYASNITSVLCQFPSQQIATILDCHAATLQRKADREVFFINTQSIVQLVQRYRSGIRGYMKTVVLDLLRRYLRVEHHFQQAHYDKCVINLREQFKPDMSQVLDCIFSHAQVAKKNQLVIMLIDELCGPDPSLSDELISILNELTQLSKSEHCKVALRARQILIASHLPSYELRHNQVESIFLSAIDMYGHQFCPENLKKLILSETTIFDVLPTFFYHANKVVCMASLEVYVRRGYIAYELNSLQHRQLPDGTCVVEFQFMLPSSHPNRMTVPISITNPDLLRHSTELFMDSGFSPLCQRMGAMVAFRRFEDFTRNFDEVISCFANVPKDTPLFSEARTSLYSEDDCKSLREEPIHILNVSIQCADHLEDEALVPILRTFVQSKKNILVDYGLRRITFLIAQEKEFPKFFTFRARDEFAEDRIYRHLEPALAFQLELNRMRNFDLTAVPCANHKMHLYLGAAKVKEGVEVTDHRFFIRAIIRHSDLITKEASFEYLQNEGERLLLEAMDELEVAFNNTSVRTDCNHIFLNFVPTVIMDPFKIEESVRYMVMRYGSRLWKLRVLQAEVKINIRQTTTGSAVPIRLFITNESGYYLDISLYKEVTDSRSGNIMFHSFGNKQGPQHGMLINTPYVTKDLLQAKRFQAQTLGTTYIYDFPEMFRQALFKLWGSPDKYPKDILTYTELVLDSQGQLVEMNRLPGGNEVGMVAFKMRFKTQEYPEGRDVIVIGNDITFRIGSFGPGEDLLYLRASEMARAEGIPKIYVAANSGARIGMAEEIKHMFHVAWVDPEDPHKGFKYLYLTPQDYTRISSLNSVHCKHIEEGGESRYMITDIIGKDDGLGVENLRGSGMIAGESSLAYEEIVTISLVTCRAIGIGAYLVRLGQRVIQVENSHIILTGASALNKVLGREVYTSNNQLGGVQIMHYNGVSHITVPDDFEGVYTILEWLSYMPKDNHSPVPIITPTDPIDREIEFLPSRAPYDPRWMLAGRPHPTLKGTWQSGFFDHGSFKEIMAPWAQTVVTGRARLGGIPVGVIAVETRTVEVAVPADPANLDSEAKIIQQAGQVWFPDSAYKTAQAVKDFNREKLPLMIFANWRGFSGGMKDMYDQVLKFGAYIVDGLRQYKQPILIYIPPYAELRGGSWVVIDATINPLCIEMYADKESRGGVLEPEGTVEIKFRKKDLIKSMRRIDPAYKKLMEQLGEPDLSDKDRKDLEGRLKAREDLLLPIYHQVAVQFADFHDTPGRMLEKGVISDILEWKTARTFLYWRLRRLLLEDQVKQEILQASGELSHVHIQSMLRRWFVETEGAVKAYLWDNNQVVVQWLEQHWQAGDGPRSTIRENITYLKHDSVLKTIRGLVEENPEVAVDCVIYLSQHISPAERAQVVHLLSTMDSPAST
Test Details: ACC2 assay, spectrophotometric 384 well assay (NADH-linked, coupled lactate dehydrogenase/pyruvate kinase)
Format: biochemical
Test Conditions: ACC2 assay, hACC2 construct lacking 128 N-terminal amino acids, 25° C., 340 nm; read-out: IC50
Property: IC50 (nM)
Entry rule: numbers only, all in nM.

Use the examples below as a reference point.
INSERT INTO assay_data (compound, property, value_units, reported) VALUES
  ('CC(=O)N[C@@H](C)c1ccc(C2CCN(c3ncc(-c4ccc(C)cn4)cn3)CC2)cc1 [Example 10.121]', 'IC50', 'nM', 110),
  ('CCOc1ccc(N2CCC(c3ccc([C@H](C)NC(=O)c4ccc[nH]4)cc3)CC2)cc1 [Example 6.22]', 'IC50', 'nM', 670),
  ('CC(=O)N[C@@H](C)c1ccc(C2CCN(c3ccnc(Oc4ccccc4)n3)CC2)cc1 [Example 11.119]', 'IC50', 'nM', 240),
  ('CC(=O)N[C@@H](C)c1ccc(C2CCN(c3ccnc(OC4CCCCC4)c3)CC2)cc1 [Example 19.6]', 'IC50', 'nM', 80),
  ('CC(=O)N[C@@H](C)c1ccc(C2CCN(c3cccc4c3OCCO4)CC2)cc1 [Example 1.98]', 'IC50', 'nM', 470);

Entry under review: CC(=O)N[C@@H](C)c1ccc(C2CCN(c3ccnc(N4CC5CCCC5C4)n3)CC2)cc1 (stereo partly shown) [Example 11.78] . Reported IC50?
610

What IC50 value was documented for this compound, CC(=O)N[C@@H](C)c1ccc(C2CCN(c3ncc(C(=O)N(C)Cc4ccccc4)cn3)CC2)cc1 [Example 18.93] ?
800

Quick one: IC50 for CCOc1ccc(N2CCC(c3ccc([C@H](C)NC(=O)OC)cc3)CC2)c(OCC)c1 [Example 1.137] ?
16000
